Biological target: CSF-1R kinase (Homo sapiens (Human))
Sequence (P07333 20-972): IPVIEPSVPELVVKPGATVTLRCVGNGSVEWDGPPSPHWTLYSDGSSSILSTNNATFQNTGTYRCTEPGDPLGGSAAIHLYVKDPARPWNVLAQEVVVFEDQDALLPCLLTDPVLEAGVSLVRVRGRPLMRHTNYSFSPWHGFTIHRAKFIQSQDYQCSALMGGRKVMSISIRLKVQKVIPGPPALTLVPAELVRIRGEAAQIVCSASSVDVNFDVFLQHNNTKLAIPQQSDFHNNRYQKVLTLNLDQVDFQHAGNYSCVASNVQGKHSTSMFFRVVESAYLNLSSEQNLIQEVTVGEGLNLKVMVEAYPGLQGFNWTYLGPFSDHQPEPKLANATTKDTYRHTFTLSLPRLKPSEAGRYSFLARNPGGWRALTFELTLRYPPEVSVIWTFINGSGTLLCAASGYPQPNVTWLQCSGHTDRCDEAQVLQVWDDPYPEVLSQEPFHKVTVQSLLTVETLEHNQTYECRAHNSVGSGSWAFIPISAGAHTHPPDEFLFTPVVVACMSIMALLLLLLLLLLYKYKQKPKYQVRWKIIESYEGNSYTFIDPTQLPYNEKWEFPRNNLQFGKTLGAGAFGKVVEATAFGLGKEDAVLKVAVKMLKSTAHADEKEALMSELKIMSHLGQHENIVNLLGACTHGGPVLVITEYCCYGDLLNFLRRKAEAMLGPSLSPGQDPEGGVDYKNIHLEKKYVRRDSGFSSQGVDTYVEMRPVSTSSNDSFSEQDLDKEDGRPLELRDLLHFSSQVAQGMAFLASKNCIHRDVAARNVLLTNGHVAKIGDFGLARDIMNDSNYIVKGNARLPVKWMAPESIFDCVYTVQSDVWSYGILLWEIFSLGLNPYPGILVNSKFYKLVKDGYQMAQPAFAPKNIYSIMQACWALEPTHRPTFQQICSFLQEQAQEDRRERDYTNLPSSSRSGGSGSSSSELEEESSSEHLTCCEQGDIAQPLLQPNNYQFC
Experiment: CSF-1R kinase assay (AlphaScreen)
Assay type: biochemical
Conditions: class symbol
pIC50: −log10 of the molar value.
Reported pIC50 is given for each of the following compounds.

Guide cases for pIC50, answers given:
COc1ccc(COc2ccc(Nc3ccc4ncc(N5CCOCC5)nc4c3C#N)cc2OC)c(F)c1 : > 7.00
COc1ccc(COc2ccc(Nc3ccc4ncc(N5CCOCC5)nc4c3C#N)cc2F)cc1 : > 7.00
COc1ccc(COc2ccc(Nc3ccc4ncc(N5CCN(C(C)C)CC5)nc4c3C#N)cc2OC)cc1 : > 7.00
CCOc1ccc(COc2ccc(Nc3ccc4ncc(OC)nc4c3C#N)cc2OC)cc1 : 6.00 to 6.52
COc1cc(Nc2ccc3ncc(N4CCOCC4)nc3c2C#N)ccc1OCc1cccc(F)c1 : > 7.00

Value of measured pIC50 for the entry COc1ccc(COc2ccc(Nc3ccc4ncc(N5CCC5)nc4c3C#N)cc2OC)cc1 : > 7.00

Value of measured pIC50 for the entry COc1cc(Nc2ccc3ncc(N4CCN(C)CC4)nc3c2C#N)ccc1OCc1cccc(C#N)c1 : > 7.00

Value of measured pIC50 for the entry COc1cc(Nc2ccc3ncc(N4CCNCC4)nc3c2C#N)ccc1OCc1ccc(C)nc1 : > 7.00

Value of measured pIC50 for the entry COc1cc(Nc2ccc3ncc(N4CCOCC4)nc3c2C#N)ccc1OCc1ccc(Cl)cc1 : > 7.00

Value of measured pIC50 for the entry CCc1ccc(COc2ccc(Nc3ccc4ncc(N5CCOCC5)nc4c3C#N)cc2OC)cn1 : > 7.00

Value of measured pIC50 for the entry COc1cc(Nc2ccc3ncc(N4CCOCC4)nc3c2C#N)ccc1OCc1ccc2c(c1)CCO2 : > 7.00

Value of measured pIC50 for the entry COc1cc(Nc2ccc3ncc(N4CCOCC4)nc3c2C#N)ccc1OCc1ccc(CF)nc1 : > 7.00

Value of measured pIC50 for the entry CCOc1ccc(COc2ccc(Nc3ccc4ncc(N5CCOCC5)nc4c3C#N)cc2OC)cc1 : > 7.00

Value of measured pIC50 for the entry COc1cc(Nc2ccc3ncc(N4C[C@@H](C)O[C@@H](C)C4)nc3c2C#N)ccc1OCc1ccc(C)nc1 : > 7.00

Value of measured pIC50 for the entry COc1ccc(COc2ccc(Nc3ccc4ncc(OC)nc4c3C#N)cc2OC)cc1 : 6.00 to 6.52

Value of measured pIC50 for the entry COc1ccc(COc2ccc(Nc3ccc4ncc(N5CCC5)nc4c3C#N)cc2OC)cn1 : > 7.00

Value of measured pIC50 for the entry COc1cc(Nc2ccc3ncc(N4CCOCC4)nc3c2C#N)ccc1OCc1ccncc1 : 6.00 to 6.52

---

Target: PDGFRβ kinase (Homo sapiens (Human), UniProt P09619)
Sequence (P09619 33-1106): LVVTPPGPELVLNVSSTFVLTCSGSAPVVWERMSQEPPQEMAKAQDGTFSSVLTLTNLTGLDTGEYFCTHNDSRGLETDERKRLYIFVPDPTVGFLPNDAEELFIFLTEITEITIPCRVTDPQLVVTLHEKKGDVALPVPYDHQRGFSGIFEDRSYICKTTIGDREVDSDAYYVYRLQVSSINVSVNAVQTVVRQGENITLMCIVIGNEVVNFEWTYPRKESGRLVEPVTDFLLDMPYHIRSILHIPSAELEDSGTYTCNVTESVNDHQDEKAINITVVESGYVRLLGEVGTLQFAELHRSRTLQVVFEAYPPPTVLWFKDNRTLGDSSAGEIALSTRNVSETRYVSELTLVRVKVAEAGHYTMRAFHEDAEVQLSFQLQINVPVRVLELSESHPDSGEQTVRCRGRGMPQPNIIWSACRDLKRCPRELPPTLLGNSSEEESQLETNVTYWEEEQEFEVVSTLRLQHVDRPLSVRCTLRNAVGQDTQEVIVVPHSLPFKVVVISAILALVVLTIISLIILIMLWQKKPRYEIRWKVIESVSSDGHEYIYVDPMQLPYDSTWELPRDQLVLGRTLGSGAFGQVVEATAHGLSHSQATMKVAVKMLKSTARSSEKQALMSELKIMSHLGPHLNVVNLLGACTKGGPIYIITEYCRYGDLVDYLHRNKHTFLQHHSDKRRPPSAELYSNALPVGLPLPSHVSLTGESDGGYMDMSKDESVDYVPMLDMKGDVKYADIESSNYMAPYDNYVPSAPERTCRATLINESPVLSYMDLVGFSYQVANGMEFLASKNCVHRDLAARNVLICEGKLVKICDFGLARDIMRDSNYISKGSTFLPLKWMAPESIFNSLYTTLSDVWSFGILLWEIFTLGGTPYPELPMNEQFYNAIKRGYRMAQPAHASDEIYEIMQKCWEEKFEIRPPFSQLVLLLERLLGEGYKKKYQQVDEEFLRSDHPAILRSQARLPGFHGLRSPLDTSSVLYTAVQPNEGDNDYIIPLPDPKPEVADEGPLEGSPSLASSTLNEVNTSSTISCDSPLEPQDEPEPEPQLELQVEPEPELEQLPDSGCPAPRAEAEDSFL
Assay: PDGFRβ kinase assay (radiometric)
Format: biochemical
Settings: bound
pIC50: −log10 of the molar value.
Reported pIC50 is given for each of the following compounds.

Guide cases for pIC50, answers given:
CCc1ccc(COc2ccc(Nc3ccc4ncc(N5CCOCC5)nc4c3C#N)cc2OC)cn1 : < 6.00
COc1cc(Nc2ccc3ncc(N4CCOCC4)nc3c2C#N)ccc1OCc1ccsc1 : < 6.00
COc1cc(Nc2ccc3ncc(N4CCOCC4)nc3c2C#N)ccc1OCc1ccccc1 : < 6.00
COCc1ccc(COc2ccc(Nc3ccc4ncc(N5CCOCC5)nc4c3C#N)cc2OC)cn1 : < 6.00
COc1ccc(COc2ccc(Nc3ccc4ncc(NC(C)C)nc4c3C#N)cc2OC)cc1 : < 6.00

Value of measured pIC50 for the entry COc1ccc(COc2ccc(Nc3ccc4ncc(N5CCC(C)CC5)nc4c3C#N)cc2OC)cn1 : < 6.00

Value of measured pIC50 for the entry COc1ccc(COc2ccc(Nc3ccc4ncc(N5CCNCC5)nc4c3C#N)cc2OC)cc1 : < 6.00

Value of measured pIC50 for the entry COc1ccc(COc2ccc(Nc3ccc4ncc(N5CCN(CCOC(C)=O)CC5)nc4c3C#N)cc2OC)cn1 : < 6.00

---

Reported pIC50 is given for each of the following compounds.
Biological target: FLT3 kinase (Homo sapiens (Human))
Sequence (P36888 27-993): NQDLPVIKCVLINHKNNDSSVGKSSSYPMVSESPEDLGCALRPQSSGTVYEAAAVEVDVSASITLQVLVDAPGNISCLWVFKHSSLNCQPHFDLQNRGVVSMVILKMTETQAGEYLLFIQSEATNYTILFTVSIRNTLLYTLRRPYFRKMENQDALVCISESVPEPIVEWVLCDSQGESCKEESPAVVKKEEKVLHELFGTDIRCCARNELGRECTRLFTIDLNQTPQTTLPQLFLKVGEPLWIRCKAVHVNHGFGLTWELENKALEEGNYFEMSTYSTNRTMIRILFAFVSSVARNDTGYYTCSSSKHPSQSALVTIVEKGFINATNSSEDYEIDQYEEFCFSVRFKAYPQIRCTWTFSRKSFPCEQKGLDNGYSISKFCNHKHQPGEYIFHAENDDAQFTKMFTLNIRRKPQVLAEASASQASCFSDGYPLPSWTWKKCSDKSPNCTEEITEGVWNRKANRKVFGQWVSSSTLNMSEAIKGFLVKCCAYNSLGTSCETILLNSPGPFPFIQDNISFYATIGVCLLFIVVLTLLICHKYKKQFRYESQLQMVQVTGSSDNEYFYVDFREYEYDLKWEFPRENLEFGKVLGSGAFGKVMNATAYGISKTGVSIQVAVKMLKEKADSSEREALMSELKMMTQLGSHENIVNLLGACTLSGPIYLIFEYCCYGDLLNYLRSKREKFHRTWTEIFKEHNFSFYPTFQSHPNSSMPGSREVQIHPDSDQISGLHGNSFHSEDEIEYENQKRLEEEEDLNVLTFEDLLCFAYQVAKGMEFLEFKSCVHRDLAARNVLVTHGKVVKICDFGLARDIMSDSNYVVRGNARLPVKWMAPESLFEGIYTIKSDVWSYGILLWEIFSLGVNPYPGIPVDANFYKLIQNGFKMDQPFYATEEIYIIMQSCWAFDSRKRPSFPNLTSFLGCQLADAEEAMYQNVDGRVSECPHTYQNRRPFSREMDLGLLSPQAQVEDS
Test: FLT3 kinase assay (radiometric)
Assay type: biochemical
Details: bound
pIC50: −log10 of the molar value.

Guide cases for pIC50, answers given:
COc1cc(Nc2ccc3ncc(N4CCOCC4)nc3c2C#N)ccc1OCc1cc(C)on1 : < 6.00
COc1ccc(COc2ccc(Nc3ccc4ncc(N5CCN(C)CC5)nc4c3C#N)cc2OC)cn1 : < 6.00
COc1ccc(COc2ccc(Nc3ccc4ncc(N5CCOCC5)nc4c3C#N)cc2OC)c(F)c1 : < 6.00
COc1ccc(COc2ncc(Nc3ccc4ncc(N5CCOCC5)nc4c3C#N)cc2OC)cc1 : < 6.00
COc1ccc(COc2ccc(Nc3ccc4ncc(NC(C)C)nc4c3C#N)cc2OC)cc1 : < 6.00

Shifting focus to the compound that follows.
Value of measured pIC50 for the entry COc1cc(Nc2ccc3ncc(N4CCOCC4)nc3c2C#N)ccc1OCC1CC1 : < 6.00

---

Target: c-KIT kinase (Homo sapiens (Human), UniProt P10721)
Sequence (P10721 26-976): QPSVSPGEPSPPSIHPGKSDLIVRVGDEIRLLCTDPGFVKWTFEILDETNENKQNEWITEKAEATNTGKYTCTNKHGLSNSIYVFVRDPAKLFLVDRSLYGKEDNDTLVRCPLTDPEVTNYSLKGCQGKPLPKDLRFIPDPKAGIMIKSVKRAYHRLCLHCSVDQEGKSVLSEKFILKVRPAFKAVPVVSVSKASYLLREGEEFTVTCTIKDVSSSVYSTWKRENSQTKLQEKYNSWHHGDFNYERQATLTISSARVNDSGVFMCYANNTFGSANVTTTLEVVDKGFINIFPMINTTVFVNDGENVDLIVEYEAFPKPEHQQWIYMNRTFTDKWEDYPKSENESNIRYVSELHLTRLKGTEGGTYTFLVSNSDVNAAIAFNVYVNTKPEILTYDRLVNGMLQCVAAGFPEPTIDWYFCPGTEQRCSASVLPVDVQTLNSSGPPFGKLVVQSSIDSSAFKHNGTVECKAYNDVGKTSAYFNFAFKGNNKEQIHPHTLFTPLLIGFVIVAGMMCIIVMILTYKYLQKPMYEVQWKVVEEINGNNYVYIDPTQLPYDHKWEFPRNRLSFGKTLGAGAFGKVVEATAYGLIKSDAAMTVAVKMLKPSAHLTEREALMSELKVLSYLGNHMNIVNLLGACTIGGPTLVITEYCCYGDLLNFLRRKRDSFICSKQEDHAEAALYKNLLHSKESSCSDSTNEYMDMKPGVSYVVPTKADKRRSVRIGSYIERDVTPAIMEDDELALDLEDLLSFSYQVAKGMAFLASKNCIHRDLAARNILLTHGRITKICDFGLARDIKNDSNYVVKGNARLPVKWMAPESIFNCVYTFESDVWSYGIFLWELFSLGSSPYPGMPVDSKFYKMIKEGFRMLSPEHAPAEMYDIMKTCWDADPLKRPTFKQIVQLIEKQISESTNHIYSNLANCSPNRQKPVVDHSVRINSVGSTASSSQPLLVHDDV
Experiment: c-KIT kinase assay (radiometric)
Format: biochemical
Settings: class symbol
Reported IC50 is given for each of the following molecules.

Guide cases for IC50, answers given:
COc1cc(Nc2ccc3ncc(N4CCOCC4)nc3c2C#N)ccc1OCc1ccc(Cl)cc1 : < 100 nM
CNc1cnc2ccc(Nc3ccc(OCc4ccc(OC)cc4)c(OC)c3)c(C#N)c2n1 : < 100 nM

Value of measured IC50 for the entry COc1ccc(COc2ccc(Nc3ccc4ncc(N5CCN(C(C)C)CC5)nc4c3C#N)cc2OC)cc1 : < 100 nM

Value of measured IC50 for the entry COc1ccc(COc2ccc(Nc3ccc4ncc(N5CCOCC5)nc4c3C#N)c(F)c2)cc1 : 300 to 1000 nM

---

Tested on: THP-1 human acute monocytic leukemia cell harboring NRAS G12D mutation
Experiment: THP-1 cell proliferation assay (counter screen, CellTiter-96)
Type: cell-based
Conditions: Cytotoxicity, THP-1 cells (counter screen), 72 hours
property_measured: IC50

Guide cases for IC50, answers given:
COc1ccc(COc2ccc(Nc3ccc4ncc(NC5CCN(Cc6ccccc6)CC5)nc4c3C#N)cc2OC)cc1 : 1 to 10 µM
COc1ccc(COc2ccc(Nc3ccc4ncc(N5CCN(CCO)CC5)nc4c3C#N)cc2OC)cn1 : > 10 µM
COc1ccc(COc2ccc(Nc3ccc4ncc(N5CCOCC5)nc4c3C#N)cc2F)cc1 : > 10 µM
COc1cc(Nc2ccc3ncc(N4CCN(C)CC4)nc3c2C#N)ccc1OCc1cccc(C#N)c1 : > 10 µM
COCc1ccc(COc2ccc(Nc3ccc4ncc(N5CCOCC5)nc4c3C#N)cc2OC)cn1 : > 10 µM

Shifting focus to the compound that follows.
Entry COc1ccc(COc2ccc(Nc3ccc4ncc(N5CCN(C)CC5)nc4c3C#N)cc2OC)cn1 under THP-1 human acute monocytic leukemia cell harboring NRAS G12D mutation had IC50 of 1 to 10 µM

---

Reported pIC50 is given for each of the following molecules.
Target: FLT3 kinase (Homo sapiens (Human))
Test: FLT3 kinase assay (radiometric)
Assay type: biochemical
Conditions: bound
pIC50: −log10 of the molar value.

COc1cc(N(C)c2ccc3ncc(N4CCOCC4)nc3c2C#N)ccc1OCc1ccc(C2CC2)nc1 : < 6.00
COc1ccc(COc2ccc(Nc3ccc4ncc(N5CCOCC5)nc4c3)cc2OC)cc1 : < 6.00

Shifting focus to the molecule that follows.
Entry COc1ccc(COc2ccc(Nc3ccc4ncc(N5CCC(C)CC5)nc4c3C#N)cc2OC)cn1 under FLT3 kinase (Homo sapiens (Human)) had pIC50 of < 6.00

---

Target: PDGFRβ kinase (Homo sapiens (Human), UniProt P09619)
Test: PDGFRβ kinase assay (radiometric)
Type: biochemical
Conditions: class symbol
pIC50: −log10 of the molar value.
Reported pIC50 is given for each of the following compounds.

Guide cases for pIC50, answers given:
COc1ccc(COc2ccc(Nc3ccc4ncc(N5CCN(C)CC5)nc4c3C#N)cc2OC)cc1 [Example 31] : 6.00 to 6.52
COc1ccc(COc2ccc(Nc3ccc4ncc(N5CCN(CCO)CC5)nc4c3C#N)cc2OC)cc1 [Example 66] : 6.00 to 6.52
COc1cc(Nc2ccc3ncc(N4CCOCC4)nc3c2C#N)ccc1OCc1ccc(OC(F)(F)F)cc1 [Example 32] : 6.52 to 7.00

Shifting focus to the compound that follows.
Value of measured pIC50 for the entry CCOc1ccc(COc2ccc(Nc3ccc4ncc(N5CCOCC5)nc4c3C#N)cc2OC)cc1 [Example 35] : 6.00 to 6.52

---

Biological target: c-KIT kinase (Homo sapiens (Human), UniProt P10721)
Test: c-KIT kinase assay (radiometric)
Type: biochemical
Details: class symbol
pIC50: −log10 of the molar value.
property_measured: pIC50

COc1cc(Nc2ccc3ncc(N4CCOCC4)nc3c2C#N)ccc1OCc1ccc(N(C)C)nc1 : > 7.00
COc1cc(Nc2ccc3ncc(N4CCOCC4)nc3c2C#N)ccc1OCc1cccc(C#N)c1 : 6.52 to 7.00
COc1ccc(COc2ccc(Nc3ccc4ncc(N5CCOCC5)nc4c3)cc2OC)cc1 : > 7.00
CCCc1ccc(COc2ccc(Nc3ccc4ncc(N5CCOCC5)nc4c3C#N)cc2OC)cn1 : > 7.00

Value of measured pIC50 for the entry COc1ccc(COc2ccc(Nc3ccc4ncc(NC5CCN(Cc6ccccc6)CC5)nc4c3C#N)cc2OC)cc1 : 6.00 to 6.52

Value of measured pIC50 for the entry COc1cc(Nc2ccc3ncc(N4CCC4)nc3c2C#N)ccc1OCc1cccc(C#N)c1 : 6.52 to 7.00

Value of measured pIC50 for the entry COc1ccc(COc2ccc(Nc3ccc4ncc(N(C)C)nc4c3C#N)cc2OC)cc1C#N : 6.52 to 7.00

Value of measured pIC50 for the entry COc1cc(Nc2ccc3ncc(C4=CCOCC4)nc3c2C#N)ccc1OCc1ccc(C)nc1 : > 7.00
